Values from PubChem BioAssay AID1508600

experiment: Components of the Cytosolic LPS Sensing Pathway: Gene Identification via Genome-wide siRNA Screen; settings: RAW264.7 macrophages, IL-1a HTRF, actives lie on both sides, screened at 100 nM (by protocol), cells primed 5 h with Pam3CSK4 first;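 also: robust z of the log signal after scaling to non-targeting control siRNA wells of the plate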
The whole screen tested about 53,000 sequences, of which about 3,700 (7%) were called active. Many of the other results were omitted from the sample, so actives are more common in it than they were.
experimental.readout: z-score

* GCUCAGAUAAUGGCCUACATT against Smarca4 | 2.28
* GCAGUCAUGGGUUCUUAAGTT against Gng3 | 0.109
* GGAGAUGCUGUUCUUUCCGTT against Casc3 | -1.18
* CGCGGCAUAAACAUGUAAATT against Gatc | -1.07
* GGAUAAUCAUUCUUGUCACTT against Ptgfr | -0.736
* GGUGUACCAGAAUGAGAAGTT against Akr1b3 | 0.611
* CCAUAUGAUAAGCAUAAGCTT against Zfp449 | 0.149
* GGUGGCAUUAAGGAAAUCATT against Olfr147 | -0.0185
* GCAAGCUAAUGAGCUACAATT against Samd9l | -0.107
* GGAAAAAGCCUAACUAUGATT against Ccnl1 | -0.7
* GCUUAUCGAAUUCUUCUCCTT against Cnpy2 | 0.417
* GGUGGUUAUGAUCUAUGAUTT against Dazap1 | -1.43
* GAAAGAAACGGCAGAUUGCTT against Vmn2r122 | 0.133
* CGUUGUGAGGUUAUACGACTT against Tbc1d20 | -0.862
* GGACGUGAAGUGAAGUCAUTT against 1810009N02Rik | -0.626
* GGGCCAAGUUCCGAAAGAATT against Dmbx1 | -0.443
* GGUCUCCAUUUCUUUCUGCTT against Nmd3 | -0.952
* GGCUCUUAGAAAAAUGUUATT against Olfr1156 | -0.816
* GCUGUUCGUGAGGAUAACCTT against Yipf1 | 1.2
* GGAAGAAACAUGUAUCAUGTT against Tff1 | 0.556
* GGACCUUUUGUGAACUUACTT against E2f3 | 4.53
* GGACUACGUAUUUUCCCUGTT against Cyc1 | -0.39
* GUUCUUAUAUAGGAUUGUGTT against Xkr9 | -0.782
* GGAAUUCUCUCAGCAGAAGTT against 1110038F14Rik | -2.17
* GCUCUUCCGAUUAAUGCAGTT against Gabra6 | 2.87

###

Assay: Components of the Cytosolic LPS Sensing Pathway: Gene Identification via Genome-wide siRNA Screen;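 also: robust z of the log signal after scaling to non-targeting control siRNA wells of the plate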
Conditions: RAW264.7 macrophages, IL-1a HTRF, actives lie on both sides, screened at 100 nM (by protocol), cells primed 5 h with Pam3CSK4 first
Experimental: Non-canonical inflammasome activation by cytosolic LPS is a critical component of the host response to Gram-negative bacterial infection, however we lack a comprehensive understanding of the cellular processes that control this pathway. […] Lipofectamine RNAiMAX Transfection Reagent ([…]; Invitrogen) was added in […] serum-free, antibiotic-free media to plate wells using a Thermo Scientific Matrix WellMate and Microplate Stacker. […] The plates were read on an EnVision plate reader (PerkinElmer). […]
The whole screen tested about 53,000 sequences, of which about 3,700 (7%) were called active.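 Rule for the calls: active = gene knockdowns whose robust z-score for IL-1 alpha signal is at least 2 or at most -2, so actives lie on both sides; inactive = the rest.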 Only a selection was taken, and actives are over-represented in it overall.
Classes used: active, inactive

- GGUGAAGACAGAAUUUCCGTT against 1700128F08Rik: inactive
- GGAAUAGUAACUCUUUCUCTT against Ehbp1l1: inactive
- CGAGGAGUGGUAUUUUUACTT against Slc34a1: inactive
- GGUGCUGCUGAGAUUUUUCTT against Pxt1: inactive
- GGCCAUUCACGUUUUACUCTT against Ric8b: inactive
- GCCAAAAAAGCUGUCAGUUTT against Nkx2-3: inactive
- GGACUGUGCAGUUAUUGUCTT against Psma6: active
- GGCCUCGAACAGUUUAUUATT against Snx12: inactive
- GGAGGAAAAGUAGGUUUGCTT against Peli1: inactive
- GGAAAAAAAUGCUGUAUACTT against Insm1: inactive
- GGGAUAAGUACUCUGCUAATT against Sorcs3: inactive
- CCACAACUAUGAGUCUAUUTT against Ech1: active

###

assay: Components of the Cytosolic LPS Sensing Pathway: Gene Identification via Genome-wide siRNA Screen; details: RAW264.7 macrophages, IL-1a HTRF, actives lie on both sides, screened at 100 nM (by protocol), cells primed 5 h with Pam3CSK4 first;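 also: robust z of the log signal after scaling to non-targeting control siRNA wells of the plate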
Out of some 53,000 sequences screened, about 3,700 (7%) were called active. This is one part of a sample in which actives are shown more often than they occur.
experimental.readout: z-score

- CCUCCAGAUAAGAAUGUGCTT against Fnip1: -1.34
- GGAACUGUCACAACUGCUATT against Acat3: 3.22
- GGACUGGAAGAAUUUUUUGTT against Mrpl47: 0.293
- GGUAUUAGUAUGUAUCUUCTT against Olfr135: 0.305
- GUAGUUGUUCUGAGAAAUCTT against Krtap19-2: -0.49
- CGAGCACCUAUUCAUCAUATT against Tdo2: 0.889
- GGACUGUUGCAUGACUCUCTT against Evc: 1.08
- GGUUUUCUUUUCUUCUGCCTT against Aar2: -1.11
- GGCAUGUGGUUGAAGGCCUTT against Fank1: -0.337
- GGGAAAAUGGCUUAACCGUTT against Siglecg: 0.703
- GCACUAAGUCCCAUGUGUCTT against Trim11: -1.01
- GGCUGUUUGGCUUGUUUAATT against Golga7: 1.82
- GCAAUGCGACGUGCUCUAUTT against Trim67: 0.136
- GGGCUUACUGCUUAAUAGATT against Fundc2: 0.481
- GGCCAUGAAUAUGGAGUCCTT against Cptp: 0.623
- GGGACACUUUCACUUGUUCTT against Rmnd5a: 0.159
- CCCUAGAGAUGGUGGGUCUTT against Olfr934: -0.484
- CCUGUGAAGUAUAACAUCGTT against Fam234b: -0.722
- CCCGUGGUCCUACAUUGUUTT against Cdon: 2.39
- GGGCUUCUUUGACCUCAUCTT against Kdelr1: -2.71
- CGCGCUUCUACUUUUUUUATT against Nkx2-1: 0.406
- GGACUCAAGAGAAAUUCAATT against Nod2: 2.19
- GGGAUUUGUUGUCUAAGAUTT against Mapk10: -0.54
- GGGAAUGGAGGUCCAGAUUTT against Spatc1l: -2.33
- UAAAAAUGAGCCGGGCAAUTT against Ms4a5: 1.42
- CGAUGGUGAUUCCCAUGUUTT against Olfr996: 0.529
- GGCUAAAGCGAAAAAAAAGTT against Msl3: -0.114
- CCCUUGUCCAGUGUGAGUUTT against Tmem184b: 1.07
- GGAAGUAACAUGCUUCUAGTT against Ccdc42: 0.75
- GGACACUUUCUCAUAUCAUTT against Abca9: 2.06
- GCAUCGACAACCUCUCUAGTT against Hba-x: 3.15
- GGAAAUCUGAGUGUGCACUTT against Pcdhgb1: 1.45
- GGUUAUCAAACAGGUGUUGTT against Aldh3b1: 2.22
- GGUACUGCUAUGAGAAACUTT against Adam22: 0.224
- GCUUAGUGACCAUCUCCGUTT against Epop: 0.236
- GGCUACAAAUCCAACUAUCTT against Ppp1r32: 0.181
- GGAGUAGCAAAGAACUGCUTT against Arpc4: -0.762
- AACCAGAGGUCCUAAAUACTT against Mmp28: -0.948
- CCCUAGUUUAUCUCCGGAUTT against Lhx1: 1.15
- GGAAUUCAUCUUACAUUCCTT against Acox3: 2.42
- GGAACCUGAAAAUGUAUGUTT against Cxcl10: 0.988
- CCUGUGAAUACUUUCACUCTT against Bok: 0.115
- GCAAGAUCCCGACACAUACTT against Tead4: -2.22
- GCAAAUCCCAUGAACAGCUTT against Nvl: -2.55
- CCCAGAAGAGGUUACAUUUTT against Cd200r4: 0.0312
- GCUCCGGAACAGAUAAAACTT against Kat14: -0.485
- CCAUUCUACACUUUUCCACTT against Krtap1-5: -0.909
- GGAGCUCUUCCAGUUGUUUTT against Khk: -1.51
- CGACAUAGCUUCUGUACUGTT against Spaca9: -1.42
- GGAUUCCUGUUAAAAGUCUTT against Azin1: -0.152

###

experiment: Components of the Cytosolic LPS Sensing Pathway: Gene Identification via Genome-wide siRNA Screen; conditions: RAW264.7 macrophages, IL-1a HTRF, actives lie on both sides, screened at 100 nM (by protocol), cells primed 5 h with Pam3CSK4 first;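 also: robust z of the log signal after scaling to non-targeting control siRNA wells of the plate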
Hit rate of the full screen: of about 53,000 sequences, about 3,700 (7%) were called active. This is one part of a sample in which actives are shown more often than they occur.
Field 'label' (enum: t / f). Set to t when z-score is strictly under 0.4; else f.

- GGGAACUUUCCUCAAGUCUTT against Phactr3: t
- GGAAAGAAUAGCAGCGUGGTT against Echs1: f
- GCUAUUGGAGGAAUGUAUCTT against Rasgrp4: t
- GCCAUCUACUCUUUAAAUATT against Pdha1: t
- GGCGAAAGUAAGACAAAGUTT against Ric8a: f
- CAUCUUUCAUCAAAUAACUTT against Krtap31-2: f
- GGGAGACCGGCAAAAAAAATT against Pde1b: f
- CCCUAGCGGAAAUUGUCAATT against Nono: t
- GGGUACAAAACUUGAACUUTT against Gins3: f
- GCAGAGAUACCUAUCAAAGTT against Angptl4: f
- GGAUGAAAACACUGAAUACTT against Olfr644: t
- GGAUAACAGAUGGUUAAUATT against Pramel48: t
- GGAAGAUGAUGUUUUAGGUTT against Pde7a: t
- GCACGGAGCCAAAUAAUCUTT against Rpl28: f
- GCAGGCCAGAGUAGUCAUGTT against Them6: f
- CCUAGAGGAUUCAGAUCAATT against Pnmal1: f
- CGAUCCAUGUUGUAAGCGCTT against Adam39: t
- GGAGUGACUCCUACAAAAUTT against Ms4a4b: t
- GGAUCAUGGAUAUACCACCTT against Smarcb1: t
- GCAACAUAUGGUAUACUGUTT against Mdm4: f
- GGAUGAAGAACCACUCAAATT against Ankzf1: t
- GGAAGUCAGACAGAUUUAATT against Prss33: f
- GGUGAUGGAAAUAAACUACTT against Dhrs7b: f
